The values you see were collected from patent US9795694B2.

# assayText: Fluorescence spectra in phosphate buffer solution
# Type: physicochemical
Give emission wavelength for every item shown.

[
  {
    "compound": "COCCOCCn1c2ccccc2c2cc(/C=C/c3c4ccccc4[n+](CCO)c4ccccc34)ccc21.[I-] [SAOH]",
    "emission wavelength": "~760 nm"
  }
]

Proceeding to the next compound to report its emission wavelength.
// field: emission wavelength; key: COCCOCCn1c2ccccc2c2cc(/C=C/c3c4ccccc4[n+](C)c4ccccc34)ccc21.[I-] [SAM] ; value = ~760 nm
